assay: Oral bioavailability, pharmacokinetic screening (i.v./p.o. cross-over, LC/MS/MS)
Assay type: in vivo
test-context: male, rat, plasma, oral; Sprague-Dawley rats, TFA salts in PBS, 500 nmol/kg i.v. and p.o. bolus, p.o. fasted 17 hours; dose normalised AUCpo/AUCiv; read-out: F (%) Mean (mean bioavailability)
Below, each entry is listed alongside its reported bioavailability.
Hi! Could you send only the number? It should be in %, unit omitted.

Study these solved cases before continuing.
> print(dat)
                            compound.string         quantity  reading.unit  assay.result
1  COc1ccc(CNC(=O)C[C@@H](N)C(=O)N[C@@H](C)C(=O)O)cc1  bioavailability             %            29
2  CC(C)(C)c1ccc(C(=O)NCCCC[C@@H](N)C(=O)NCC(=O)O)cc1  bioavailability             %           7.2

Record summary for C[C@H](NC(=O)[C@H](N)CC(=O)NCc1ccc([N+](=O)[O-])cc1)C(=O)O : reported bioavailability = 15

----------
# reported bioavailability; entries follow
assay: Oral bioavailability, pharmacokinetic screening (i.v./p.o. cross-over, LC/MS/MS)
Type: in vivo
test-context: male, rat, plasma, oral; Sprague-Dawley rats, TFA salts in PBS, 500 nmol/kg i.v. and p.o. bolus, p.o. fasted 17 hours; dose normalised AUCpo/AUCiv; read-out: F (%) Mean (mean bioavailability)
Where a SMILES comes first, the peptide text is derived from it. [ ]: non-standard residue; d: D form. The star is where a group is joined. Bz = O=C(c1ccccc1)*
Just the number please, in %, no unit attached.

Consider the following illustrative entries.
> print(dat)
                                   molecule  reading.unit  assay.result
1  COc1ccc(C(=O)NCCCC[C@@H](N)C(=O)NCC(=O)O)cc1 [Compound 21, H-D-Lys(4-methoxybenzoyl)-Gly-OH]             %           2.6
2  N[C@H](CCCCNC(=O)c1ccccc1)C(=O)NCC(=O)O [Compound 23, H-D-Lys(benzoyl)-Gly-OH] (H-[dK](Bz)-Gly-OH)             %            10

// switching to the query molecule
Short answer for N[C@H](CCCCNC(=O)c1ccc([N+](=O)[O-])cc1)C(=O)NCC(=O)O [Compound 22, H-D-Lys(4-nitrobenzoyl)-Gly-OH] : bioavailability was 31

----------
assay: Oral bioavailability, pharmacokinetic screening (i.v./p.o. cross-over, LC/MS/MS)
Type: in vivo
test-context: male, rat, plasma; Sprague-Dawley rats, oral administration 500 nmol/kg; read-out: bioavailability
Where a SMILES comes first, the peptide text is derived from it. [ ]: non-standard residue; d: D form. The star is where a group is joined. Bz = O=C(c1ccccc1)*
quantity: bioavailability

Answered examples (3):
> print(dat)
                                   compound  assay.result
1  CC(C)(C)c1ccc(C(=O)NCCCC[C@@H](N)C(=O)NCC(=O)O)cc1 [Compound 54, H-D-Lys(4-t-butylbenzoyl)-Gly-OH]       2 to 8%
2  COc1ccc(CNC(=O)C[C@@H](N)C(=O)N[C@@H](C)C(=O)O)cc1 [Compound 95, H-D-Asn(NH(4-methoxybenzyl))-Ala-OH]     10 to 31%
3  N[C@H](CCCCNC(=O)c1ccccc1)C(=O)NCC(=O)O [Compound 23, H-D-Lys(benzoyl)-Gly-OH] (H-[dK](Bz)-Gly-OH)     10 to 31%

So, N[C@H](CCCCNC(=O)c1ccc([N+](=O)[O-])cc1)C(=O)NCC(=O)O [Compound 22, H-D-Lys(4-nitrobenzoyl)-Gly-OH] ? Its bioavailability was 10 to 31%

Quick note, bioavailability for C[C@H](NC(=O)[C@H](N)CC(=O)NCc1ccc([N+](=O)[O-])cc1)C(=O)O [Compound 96, H-D-Asn(NH(4-nitrobenzyl))-Ala-OH] landed at 10 to 31%

The recorded bioavailability for COc1ccc(C(=O)NCCCC[C@@H](N)C(=O)NCC(=O)O)cc1 [Compound 21, H-D-Lys(4-methoxybenzoyl)-Gly-OH] is 2 to 8%
